All values here come from ChEMBL document CHEMBL1146475.

- Test system: Ileum
- assayOverview: Spasmolytic activity in guinea pig ileum assessed as inhibition of spontaneous contraction relative to papaverine
- Assay type: functional, Cavia porcellus
// reported Ratio IC50 for each item listed

Reference set (5 entries):
                            compound  propertylabel    val
0  COc1cc(O)cc(CCc2ccc(OC)c(OC)c2)c1     Ratio IC50   7.32
1        Oc1cccc(CCc2cc(O)cc(O)c2)c1     Ratio IC50   1.78
2     Oc1cc(O)cc(CCc2ccc(O)c(O)c2)c1     Ratio IC50   4.94
3   COc1cc(O)cc(CCc2ccc(O)c(OC)c2)c1     Ratio IC50  16.26
4       COc1cc(O)cc(CCc2ccc(O)cc2)c1     Ratio IC50  30.85

Ratio IC50 lookup needed for `COc1cc(CCc2cc(OC)c(O)c(OC)c2)ccc1O` , thanks.
7.65

Now the compound Oc1ccc(CCc2cc(O)cc(O)c2)cc1 [DIHYDRORESVERATROL]
2.42

Now the compound `COc1cc(O)cc(CCc2ccc(OC)c(O)c2)c1`
31.33

Now the compound `CN(C)CCCN1c2ccccc2Sc2ccc(Cl)cc21`
23.5

Now the compound `COc1cc(CCc2ccc(OC)c(OC)c2)cc(OC)c1`
6.82
